Listing of recorded BI by entry.
TESTED_SYSTEM: HTRA1-1 (Homo sapiens, UniProt Q92743)
Construct: His-MBP or His-TRX (N); made in house; host or cells: E. coli
Sequence (Q92743 365-467 limits assumed): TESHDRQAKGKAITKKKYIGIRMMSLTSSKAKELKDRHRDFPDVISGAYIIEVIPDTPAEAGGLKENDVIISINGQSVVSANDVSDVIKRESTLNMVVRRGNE
ASSAY_NOTES: Holdup assay, HTRA1-1
Assay type: binding
RUN_PARAMETERS: HTRA1-1
Procedure: The holdup assay was performed on a Tecan freedom Evo200 robot with 384-well plates in singlicate for the three 11-mer PTEN variants and the 13-mer PTEN peptide as described in [31, 32]. […] After a sufficient time to reach complex equilibrium (15 min.), a fast and mild filtration step is performed and the tag-PDZ concentrations were measured by capillary electrophoresis instrument (LabChip GXII, PerkinElmer, Massachusets, USA). […]
*1 amine or outer side, *2 acyl side, *3 side chain or, on linkers, in order; H or OH if unused. Where a SMILES comes first, the peptide text is derived from it. The star is where a group is joined. X1 = O=C(CCCC[C@@H]1SC[C@@H]2NC(=O)N[C@@H]21)NCCCOCCOCCOCCCN*; Suc = O=C(CCC(=O)[*:2])[*:1]
Answer with a number only.

- MOLECULE: "CC[C@H](C)[C@H](NC(=O)[C@H](CCC(N)=O)NC(=O)[C@@H](NC(=O)[C@H](Cc1c[nH]cn1)NC(=O)[C@H](CCC(N)=O)NC(=O)[C@H](CC(=O)O)NC(=O)[C@H](CCC(=O)O)NC(=O)[C@H](CC(=O)O)NC(=O)CCC(=O)NCCCOCCOCCOCCCNC(=O)CCCC[C@@H]1SC[C@@H]2NC(=O)N[C@@H]21)[C@@H](C)O)C(=O)N[C@H](C(=O)N[C@@H](CCCCN)C(=O)N[C@H](C(=O)O)C(C)C)[C@@H](C)O [PTEN_11]"
  OBSERVED_RESULT: 0.405
- MOLECULE: "CC[C@H](C)[C@H](NC(=O)[C@H](CCC(N)=O)NC(=O)[C@@H](NC(=O)[C@H](Cc1c[nH]cn1)NC(=O)[C@H](CCC(N)=O)NC(=O)[C@H](CC(=O)O)NC(=O)[C@H](CCC(=O)O)NC(=O)[C@H](CC(=O)O)NC(=O)CCC(=O)NCCCOCCOCCOCCCNC(=O)CCCC[C@@H]1SC[C@@H]2NC(=O)N[C@@H]21)[C@@H](C)O)C(=O)N[C@H](C(=O)N[C@@H](CCCNC(=N)N)C(=O)N[C@H](C(=O)O)C(C)C)[C@@H](C)O [PTEN_KR] ({X1-Suc}-DEDQHTQITRV-OH)"
  OBSERVED_RESULT: 0.368
- MOLECULE: "CC[C@H](C)[C@H](NC(=O)[C@H](CCC(N)=O)NC(=O)[C@@H](NC(=O)[C@H](Cc1c[nH]cn1)NC(=O)[C@H](CCC(N)=O)NC(=O)[C@H](CC(=O)O)NC(=O)[C@H](CCC(=O)O)NC(=O)[C@H](CC(=O)O)NC(=O)CCC(=O)NCCCOCCOCCOCCCNC(=O)CCCC[C@@H]1SC[C@@H]2NC(=O)N[C@@H]21)[C@@H](C)O)C(=O)N[C@H](C(=O)N[C@@H](CCCCNC(C)=O)C(=O)N[C@H](C(=O)O)C(C)C)[C@@H](C)O [PTEN_Ac]"
  OBSERVED_RESULT: 0.712

Attention now shifts to the item below.
Memo: CC[C@H](C)[C@H](NC(=O)[C@H](CCC(N)=O)NC(=O)[C@@H](NC(=O)[C@H](Cc1c[nH]cn1)NC(=O)[C@H](CCC(N)=O)NC(=O)[C@H](CC(=O)O)NC(=O)[C@H](CCC(=O)O)NC(=O)[C@H](CC(=O)O)NC(=O)[C@H](Cc1ccccc1)NC(=O)[C@@H]1CCCN1C(=O)CCC(=O)NCCCOCCOCCOCCCNC(=O)CCCC[C@@H]1SC[C@@H]2NC(=O)N[C@@H]21)[C@@H](C)O)C(=O)N[C@H](C(=O)N[C@@H](CCCCN)C(=O)N[C@H](C(=O)O)C(C)C)[C@@H](C)O [PTEN_13] ({X1-Suc}-PFDEDQHTQITKV-OH) , reported BI: 0.235

meta.source: paper PMC7774954
